Where do the numbers come from? From paper PMC3175392.

molecular target: human PR3 (Homo sapiens, UniProt P24158); construct: human neutrophil PR3 from Athens Research and Technology (Athens, GA); assay: Inhibition of NE680 cleavage by human PR3; conditions: NE680 0.5 μM as substrate; 30 min preincubation of enzyme with inhibitor, room temperature; read-out: IC50 on NE680 activation by human PR3
Sequence (P24158 28-256): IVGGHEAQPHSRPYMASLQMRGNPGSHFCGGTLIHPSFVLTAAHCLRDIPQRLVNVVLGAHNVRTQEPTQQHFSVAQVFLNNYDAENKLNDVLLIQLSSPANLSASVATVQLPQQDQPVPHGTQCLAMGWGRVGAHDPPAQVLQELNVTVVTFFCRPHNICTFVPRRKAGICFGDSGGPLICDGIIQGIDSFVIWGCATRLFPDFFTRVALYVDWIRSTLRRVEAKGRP
pIC50: −log10 of the molar value.

- Molecule: "CC(C)(C)C(=O)Oc1ccc(S(=O)(=O)Nc2ccccc2C(=O)NCC(=O)O)cc1 [sivelestat, reference compound]"
  Tested On: "human PR3 (Homo sapiens, UniProt P24158)"
  pIC50: 6.15
